pKi: −log10 of the molar value.
Multiple publications report pKi for Protease (Human immunodeficiency virus 1); what follows is a combined list.
observable: pKi

COc1ccc(S(=O)(=O)N(CC(C)C)C[C@@H](O)[C@H](Cc2ccccc2)NC(=O)O[C@H]2C[C@H]3CO[C@H]4OCC[C@@H]2[C@@H]34)cc1; 10.35
COc1ccc(S(=O)(=O)N(CC(C)C)C[C@@H](O)[C@H](Cc2ccc(-c3cccc(C#N)c3)cc2)NC(=O)O[C@H]2CCOC2)cc1; 8.09
CNC(=O)[C@H](CC(C)C)NC(=O)[C@@](O)(CCCN(Cc1ccc(Br)cc1)NC(=O)[C@@H](NC(=O)OC)C(C)(C)C)Cc1ccccc1; 7.19

(A) CNC(=O)[C@H](Cc1ccccc1)NC(=O)[C@@](O)(CCCN(Cc1ccc(Br)cc1)NC(=O)[C@@H](NC(=O)OC)C(C)(C)C)Cc1ccccc1
(B) COc1ccc(S(=O)(=O)N(CC(C)C)C[C@@H](O)[C@H](Cc2ccccc2)NC(=O)[C@@H]2CCC[C@]3(CCCO3)C2)cc1
From the recorded data, which exceeds the other in pKi: A or B ? Indicate your choice by writing its label. B
(B: 8.54, A: 6.77)

----------
Multiple publications report Ki for Protease (Human immunodeficiency virus 1, UniProt Q9YQ12); what follows is a combined list.
observable: Ki (nM)

COc1ccc(S(=O)(=O)N(CC(C)C)C[C@@H](O)[C@H](Cc2ccccc2)NC(=O)c2ccc3c(c2)[C@H](N)CC[C@@H]3O)cc1; 1.1
Nc1n[nH]c2ccc(CN3C(=O)N(Cc4ccccc4)C(CCc4ccccc4)C(O)C3Cc3ccccc3)cc12 (configuration not stated); 0.282

(1) CC(C)CN(C[C@@H](O)[C@H](Cc1ccc(-c2cccnc2)cc1)NC(=O)O[C@H]1CCOC1)S(=O)(=O)c1ccc(N)cc1
(2) COc1ccc(S(=O)(=O)N(CC(C)C)C[C@@H](O)[C@H](Cc2ccc(-c3cccc(O)c3)cc2)NC(=O)O[C@H]2CCOC2)cc1
(3) N/C(=N/O)c1cc(CN2C(=O)NC(CCc3ccccc3)C(O)C2Cc2ccccc2)ccc1F (configuration not stated)
(4) COc1ccc(S(=O)(=O)N(CC(C)C)C[C@@H](O)[C@H](Cc2ccccc2)NC(=O)c2cc(C)cc(C(=O)N(C)Cc3nc(C)oc3C)c2)cc1
(5) COC(=O)N[C@H](C(=O)NN(CC[C@@](O)(Cc1ccccc1)C(=O)N[C@H]1c2ccccc2C[C@H]1O)Cc1ccc(-c2ccc3c(c2)OCO3)cc1)C(C)(C)C
Order the entries by their reported Ki, beginning at the minimum. Your reply should list the labels following the order given in the request. 4, 1, 3, 2, 5

----------
Multiple publications report Ki for Protease (Human immunodeficiency virus 1, UniProt Q9YQ12); what follows is a combined list.
observable: Ki (nM)

COC(=O)N[C@H](C(=O)NN(CCC[C@@](O)(Cc1ccccc1)C(=O)N[C@H]1c2ccccc2C[C@H]1O)Cc1ccc(N(C)C)cc1)C(C)(C)C; 4.9
COc1ccc(S(=O)(=O)N(CC(C)C)C[C@@H](O)[C@H](Cc2ccccc2)NC(=O)O[C@H]2C[C@H]3CO[C@H]4O[C@H](C)C[C@@H]2[C@@H]34)cc1; 0.05
Nc1n[nH]c2ccc(CN3C(=O)N(Cc4ccc5[nH]nc(N)c5c4)C(Cc4ccccc4)C(O)C3CCc3ccccc3)cc12 (stereo not drawn); 0.0302
COc1ccc(S(=O)(=O)N(CC(C)C)C[C@@H](O)[C@H](Cc2ccccc2)NC(=O)O[C@H]2CO[C@H]3OC[C@H](N)[C@H]32)cc1; 0.53

(a) COC(=O)N[C@H](C(=O)NN(CCC[C@@]1(O)Cc2ccc(cc2)C/C=C\CNC(=O)[C@H](C(C)(C)C)NC1=O)Cc1ccc(Br)cc1)C(C)(C)C
(b) COc1ccc(S(=O)(=O)N(CC(C)C)C[C@@H](O)[C@H](Cc2cccc(-c3cc(C)cc(C)c3)c2)NC(=O)O[C@H]2CO[C@H]3OCC[C@H]32)cc1
(c) COc1ccc(S(=O)(=O)N(CC(C)C)C[C@@H](O)[C@H](Cc2ccccc2)NC(=O)c2ccc3c(c2)[C@H](NC(=O)OC(C)(C)C)CC[C@@H]3O)cc1
(d) COC(=O)N[C@H](C(=O)NN(CCC[C@@](O)(Cc1ccccc1)C(=O)N[C@H]1c2ccccc2C[C@H]1O)Cc1ccc(-c2cncnc2)cc1)C(C)(C)C
(e) CN[C@H]1CO[C@@H]2OC[C@H](OC(=O)N[C@@H](Cc3ccccc3)[C@H](O)CN(CC(C)C)S(=O)(=O)c3ccc(N)cc3)[C@@H]21
# sort list by recorded Ki, greatest to least Your reply should list the labels following the order given in the request. a, d, c, b, e

(A) Cc1n[nH]c2ccc(CN3C(=O)NC(CCc4ccccc4)C(O)C3Cc3ccccc3)cc12 (stereo not drawn)
(B) CNC(=O)[C@@H](NC(=O)[C@@](O)(CCCN(Cc1ccc(C#Cc2cccnc2)cc1)NC(=O)[C@@H](NC(=O)OC)C(C)(C)C)Cc1ccccc1)C(C)(C)C
// compare: A vs B , metric Ki, want the smaller Indicate your choice by writing its label. A

----------
Multiple publications report Ki for Protease (Human immunodeficiency virus 1); what follows is a combined list.
observable: Ki (nM)

Reference set, count: 4
CNC(=O)[C@@H](NC(=O)[C@@](O)(CCCN(Cc1ccc(-c2nccs2)cc1)NC(=O)[C@@H](NC(=O)OC)C(C)(C)C)Cc1ccccc1)C(C)(C)C; 3.5
COC(=O)N[C@H](C(=O)NN(CCC[C@@](O)(Cc1ccccc1)C(=O)N[C@H]1c2ccccc2C[C@H]1O)Cc1ccc(Cl)cc1)C(C)(C)C; 3.4
COC(=O)N[C@H](C(=O)NN(CCC[C@@](O)(Cc1ccccc1)C(=O)N[C@H]1c2ccccc2C[C@H]1O)CC(C)C)C(C)(C)C; 6.8
COC(=O)N[C@H](C(=O)NN(CCc1ccccc1)CC[C@@](O)(Cc1ccccc1)C(=O)N[C@H]1c2ccccc2C[C@H]1O)C(C)(C)C; 8.2

(1) Nc1cccc(CN2C(=O)NC(Cc3ccccc3)C(O)C2CCc2ccccc2)c1 (configuration not stated)
(2) CNC(=O)[C@@H](NC(=O)[C@@](O)(CCCN(Cc1ccc(-c2ccsc2)cc1)NC(=O)[C@@H](NC(=O)OC)C(C)(C)C)Cc1ccccc1)C(C)(C)C
(3) COc1ccc(S(=O)(=O)N(CC(C)C)C[C@@H](O)[C@H](Cc2ccccc2)NC(=O)O[C@@H]2C[C@@H]3OC(=O)N[C@@H]3C2)cc1
Order the entries by their reported Ki, beginning at the minimum. Your reply should list the labels following the order given in the request. 3, 2, 1
(3: 1.33 nM, 2: 3.6 nM, 1: 6.17 nM)

----------
Multiple publications report Ki for UniProt:Q9YQ12; what follows is a combined list.
observable: Ki (nM)

COC(=O)N[C@H](C(=O)NN(CCC[C@@](O)(Cc1ccccc1)C(=O)N[C@H]1c2ccccc2C[C@H]1O)Cc1ccc(-c2csc(C)n2)cc1)C(C)(C)C; 3.5
Nc1ccc(CN2C(=O)N(Cc3ccc(N)c(F)c3)C(Cc3ccccc3)C(O)C2CCc2ccccc2)cc1F (stereo unspecified); 7.94
CC1(C)S[C@H]([C@H](NC(=O)Cc2ccccc2)C(=O)NCc2ccccc2)N[C@H]1C(=O)N[C@H](Cc1ccccc1)[C@H](O)CC(=O)NCc1nc2ccccc2[nH]1; 3.2
COC(=O)[C@@H](NC(=O)[C@@H](NC(=O)[C@H](C)N1CCC([C@H](C)NC(=O)[C@H](C)N)=C[C@@H](Cc2ccccc2)C1)C(C)C)C(C)C; 437
CCCN1C(=O)O[C@@H]2C[C@H](OC(=O)N[C@@H](Cc3ccccc3)[C@H](O)CN(CC(C)C)S(=O)(=O)c3ccc(OC)cc3)C[C@@H]21; 0.14

(I) COc1ccc(S(=O)(=O)N(CC(C)C)C[C@@H](O)[C@H](Cc2ccccc2)NC(=O)c2cccc(C(=O)N3CCN(C)CC3)c2)cc1
(II) COc1ccc(S(=O)(=O)N(CC(C)C)C[C@@H](O)[C@H](Cc2ccccc2)NC(=O)O[C@H]2CCS(=O)(=O)C2)cc1
(III) COc1ccc(S(=O)(=O)N(CC(C)C)C[C@@H](O)[C@H](Cc2ccc(-c3ccc(OC(F)(F)F)cc3)cc2)NC(=O)O[C@H]2CCOC2)cc1
Order the entries by their reported Ki, beginning at the minimum. Your reply should list the labels following the order given in the request. I, II, III

(P) COc1cccc(C[C@H](NC(=O)c2cccc(N)c2Cl)[C@H](O)C(=O)N2CCC(C)(C)[C@H]2C(=O)NCc2c(C)cccc2C)c1
(Q) CC(C)(C)NC(=O)[C@@H]1CN(Cc2cccnc2)CCN1C[C@@H](O)[C@H](F)[C@@H](Cc1ccccc1)C(=O)N[C@H]1c2ccccc2C[C@H]1O
// compare: P vs Q , metric Ki, want the smaller Indicate your choice by writing its label. P
(P: 0.75 nM, Q: 2 nM)

(a) CCOc1ccc(C[C@H](NC(=O)c2cccc(N)c2Cl)[C@H](O)C(=O)N2CCC(C)(C)[C@H]2C(=O)NCc2c(C)cccc2C)cc1
(b) CNC(=O)[C@@H](NC(=O)[C@@](O)(CCCN(Cc1ccc(C#Cc2ccncc2)cc1)NC(=O)[C@@H](NC(=O)OC)C(C)(C)C)Cc1ccccc1)C(C)(C)C
(c) Cc1n[nH]c2ccc(CN3C(=O)N(Cc4ccc5[nH]nc(C)c5c4)C(Cc4ccccc4)C(O)C3CCc3ccccc3)cc12 (stereo unspecified)
# sort list by recorded Ki, greatest to least Your reply should list the labels following the order given in the request. b, a, c
(b: 6.6 nM, a: 0.861 nM, c: 0.1 nM)

(I) COc1ccc(S(=O)(=O)N(CC(C)C)C[C@@H](O)[C@H](Cc2ccc(-c3ccc(SC)cc3)cc2)NC(=O)O[C@H]2CCOC2)cc1
(II) O=C1NC(Cc2ccccc2)C(O)C(CCc2ccccc2)N1Cc1ccc2cn[nH]c2c1 (stereo unspecified)
From the recorded data, which exceeds the other in Ki: I or II ? Indicate your choice by writing its label. II

(P) Cc1ccccc1CNC(=O)[C@H]1N(C(=O)[C@@H](O)[C@H](Cc2ccc3c(c2)OCO3)NC(=O)c2cccc(N)c2Cl)CSC1(C)C
(Q) Nc1cccc(CN2C(=O)N(Cc3cccc(N)c3)[C@H](Cc3ccccc3)[C@H](O)[C@@H](O)[C@H]2Cc2ccccc2)c1
(R) Cc1c(O)cccc1C(=O)N[C@@H](CSc1ccccc1)[C@H](O)CN1C[C@H]2CCCC[C@H]2C[C@H]1C(=O)NC(C)(C)C
(S) O=C(N[C@@H](Cc1ccccc1)[C@@H](O)[C@H](O)[C@H](Cc1ccccc1)NC(=O)c1ccc(F)cc1Cl)c1ccc(F)cc1Cl
Order the entries by their reported Ki, beginning at the minimum. Your reply should list the labels following the order given in the request. R, P, Q, S

(A) COC(=O)N[C@H](C(=O)NN(CCC[C@](Cc1ccccc1)(O[Si](C)(C)C(C)(C)C)C(=O)N[C@H]1c2ccccc2C[C@H]1O[Si](C)(C)C(C)(C)C)Cc1ccc(Br)cc1)C(C)(C)C
(B) CNC(=O)[C@@H](NC(=O)[C@@](O)(CCCN(Cc1ccc(-c2ccc3c(c2)OCO3)cc1)NC(=O)[C@@H](NC(=O)OC)C(C)(C)C)Cc1ccccc1)C(C)(C)C
// compare: A vs B , metric Ki, want the smaller Indicate your choice by writing its label. B

(1) O=C1N(Cc2ccccc2)C(CCc2ccccc2)C(O)C(Cc2ccccc2)N1Cc1ccccc1 (stereo unspecified)
(2) COC[C@@H]1C[C@H](O)CN1C(=O)c1cccc(C(=O)N[C@@H](Cc2ccccc2)[C@H](O)CN(CC(C)C)S(=O)(=O)c2ccc(OC)cc2)c1
From the recorded data, which exceeds the other in Ki: 1 or 2 ? Indicate your choice by writing its label. 1
